test system: PC-9 (KRAS wild type human lung adenocarcinoma cell line); assay: KRAS 3D-Cell Proliferation Assay, PC-9 (Example 503); type: cell-based; conditions: 168 h, PC-9 3D culture, 7 days, CellTiter-Glo 3D, read-out: Prolif PC9 3D ATP IC50
Measured parameter: IC50 (µM)
Answers are plain numbers, in µM.

Below, each entry is followed by its recorded IC50 result.
- Molecule: "Oc1cc(-c2nc3c4c(nc(OC[C@@]56CCCN5C[C@H](F)C6)nc4c2F)N2C[C@H]4CC[C@H](N4)[C@H]2CO3)c2c(F)cccc2c1"
  Unit symbol: "µM"
  IC50: 16.9
- Molecule: "C=C1CN2CCC[C@@]2(COc2nc3c4c(nc(-c5cc(N)c(F)c(C)c5C(F)(F)F)c(F)c4n2)O[C@@H](C)[C@@H]2[C@@H]4CC[C@H](CN32)N4)C1"
  Unit symbol: "µM"
  IC50: 3.11
- Molecule: "Cc1c(F)c(N)cc(-c2nc3c4c(nc(OC[C@@]56CCCN5C[C@H](OCc5ccc(-c7ccccc7C#N)cc5)C6)nc4c2F)N2C[C@H]4CC[C@H](N4)[C@H]2[C@H](C)O3)c1C(F)(F)F"
  Unit symbol: "µM"
  IC50: 0.821

Each molecule below has a recorded value; state its IC50.
1. C[C@@H]1Oc2nc(-c3cc(N)c(F)c(F)c3C(F)(F)F)c(F)c3nc(OC[C@@]45CCCN4C[C@H](F)C5)nc(c23)N2C[C@H]3CC[C@H](N3)[C@@H]12
2. Cc1c(F)c(N)cc(-c2nc3c4c(nc(OC[C@@]56CCCN5C[C@H](F)C6)nc4c2F)N2C[C@H]4CC[C@H](N4)[C@H]2[C@H](C)O3)c1Cl
3. Cc1cc(N)c(F)c(-c2nc3c4c(nc(OCC56CCN5CC(F)(F)C6)nc4c2F)N2C[C@H]4CC[C@H](N4)[C@H]2[C@H](C)O3)c1C(F)(F)F (mixture of isomers)
4. C=C1CN2CCC[C@@]2(COc2nc3c4c(nc(-c5cc(O)cc6cccc(CC)c56)c(F)c4n2)O[C@@H](C)[C@@H]2[C@@H]4CC[C@H](CN32)N4)C1
5. Cc1c(F)c(N)cc(-c2nc3c4c(nc(OC[C@@]56CCCN5C[C@H](F)C6)nc4c2F)N2C[C@H]4CC[C@H](N4)[C@H]2[C@H](C)O3)c1C(F)(F)F

2.9
5.71
3.92
4.05
4.21

All figures here come from patent US12338256B2.
